Tested on: HeLa cells
PARAMETER MEASURED: EC50 (nM)
Kindly answer with a numeric value in nM, unit omitted.

Using the record for N#Cc1c(-n2c(Br)c(Br)c3cc(Br)ccc32)[nH]c2c(Br)cc(Br)cc12 , report its EC50.
1000
